system: CAKI-1 renal; assay: NCI tumour cell line growth inhibition, 48 h
MEASURED PARAMETER: TGI

Please review the following examples before continuing.
{"columns": ["MOLECULE", "MEASURED PARAMETER", "RECORDED RESULT"],
 "data": [
  ["Nc1ccc2nc(Nc3ccc(Cl)c(Cl)c3)cnc2c1", "TGI", "> 100 µM"],
  ["O=C1CCCCC/C1=C\\c1cccc([N+](=O)[O-])c1", "TGI", "> 100 µM"],
  ["Nc1ncnc2c1ncn2C1OC(CO)C(O)C1NS(=O)(=O)c1ccccc1 (stereo unspecified)", "TGI", "> 100 µM"],
  ["COc1cc(O)c(C(=O)CC(C)=O)c(OC)c1", "TGI", "> 100 µM"],
  ["Cc1nc(N)sc1C(=O)Nc1ncn[nH]1", "TGI", "> 100 µM"],
  ["O=C(N/C(=C\\c1c(O)ccc2ccccc12)c1nc2ccccc2[nH]1)c1ccccc1", "TGI", "> 100 µM"]
]}

Next item in the queue.
Req: Recorded TGI for CC(CN(C)C)S(=O)(=O)c1ccc(-c2cnc(N)c(C(=O)Nc3ccccc3)n2)cc1 (stereo unspecified) , please?
Resp: > 50.8 µM

* * *

tested on: UACC-62 melanoma; assay: NCI tumour cell line growth inhibition, 48 h
MEASURED PARAMETER: TGI

Please review the following examples before continuing.
{"columns": ["SMILES DATA", "TGI"],
 "data": [
  ["CC(=O)NNc1nc(C)c(C(/C=C/c2ccc([N+](=O)[O-])cc2)=N/NC(N)=O)s1", "> 100 µM"],
  ["O=C(N/C(=C\\c1c(O)ccc2ccccc12)c1nc2ccccc2[nH]1)c1ccccc1", "> 100 µM"]
]}

Req: Recorded TGI for "O=c1/c(=C/c2c(O)ccc3ccccc23)sc2nc3ccccc3n12" , please?
Resp: > 100 µM

* * *

tested on: HCT-15 colon; test: NCI tumour cell line growth inhibition, 48 h
MEASURED PARAMETER: TGI (µM)
Numbers only here, please. The scale is µM.

{"columns": ["COMPOUND", "MEASURED PARAMETER", "UNIT SYMBOL", "RECORDED RESULT"],
 "data": [
  ["Cc1ccc(NC(=O)C(=O)C(C(=O)c2ccc3ccccc3c2)C2OC(=O)c3ccccc32)c(C)c1 (centres undefined)", "TGI", "µM", 40.2]
]}

Next item in the queue.
Req: Recorded TGI for "Oc1cc(Cl)cc2cc(Cl)cnc12" , please?
Resp: 27.3

* * *

system: DLD-1 colon; assay: NCI tumour cell line growth inhibition, 48 h
Property: TGI; scope: individual compounds

Please review the following examples before continuing.
{"columns": ["COMPOUND", "RECORDED RESULT"],
 "data": [
  ["O=C(Nc1cc(Cl)ccc1Cl)c1cc2cccc(Br)c2oc1=O", "> 100 µM"],
  ["COc1cc(N)c2[nH]c3c(C)ccc(C)c3c2c1", "> 100 µM"],
  ["CO[C@H]1CC[C@]2(C)C3=CC[C@@]4(C)C(CC[C@@H]4C(C)CC[C@@H](C)C(C)C)C(=CCC2C1)O3 (some centres undefined)", "> 25 µM"]
]}

Next item in the queue.
Req: Recorded TGI for Cc1cc(Br)cc(C)c1NC(=O)C(=O)C(C(=O)c1ccncc1)C1OC(=O)c2ccccc21 (centres undefined) , please?
Resp: > 100 µM

* * *

tested on: SF-268 CNS; assay: NCI tumour cell line growth inhibition, 48 h
Property: TGI; scope: individual compounds
Numbers only here, please. The scale is µM.

{"columns": ["COMPOUND", "UNIT SYMBOL", "TGI"],
 "data": [
  ["COc1cc(OC)c(/C=C/C(=O)c2ccc(Nc3ncnc4ccccc34)cc2)c(OC)c1", "µM", 4.4]
]}

Req: Recorded TGI for "COc1cc(NS(C)(=O)=O)ccc1NCc1cnc2ccc3[nH]cccc3c12" , please?
Resp: 55.3

Req: Recorded TGI for "O=c1cc(-c2ccccc2)oc2ccc(OC/C(=N/O)c3ccc(F)cc3)cc12" , please?
Resp: 14.3

Req: Recorded TGI for "O=C1NCN(c2ccccc2)C12CCN(CCCC(c1ccc(F)cc1)c1ccc(F)cc1)CC2" , please?
Resp: 4.78

Req: Recorded TGI for CC(CN(C)C)S(=O)(=O)c1ccc(-c2cnc(N)c(C(=O)Nc3ccccc3)n2)cc1 (stereo not drawn) , please?
Resp: 39.8

Req: Recorded TGI for "C[N+](C)=c1ccc2nc3c(ccc4ccccc43)oc-2c1" , please?
Resp: 29.7

* * *

Property: TGI; scope: individual compounds
test system: NCI-H522 lung; experiment: NCI tumour cell line growth inhibition, 48 h

Please review the following examples before continuing.
{"columns": ["COMPOUND", "TESTED TARGET", "TGI"],
 "data": [
  ["Cc1ccc2n(c1)cc(-c1ccc(/C=N/NC(=N)N/N=C/c3ccc(-c4cn5cc(C)ccc5[n+]4C)cc3)cc1)[n+]2C", "NCI-H522 lung", "> 100 µM"],
  ["CCOP(=O)(OCC)/C(C#N)=C\\c1ccsc1", "NCI-H522 lung", "> 100 µM"]
]}

Req: Recorded TGI for "O=C(N/N=C\c1cccs1)c1ccncc1" , please?
Resp: > 100 µM

Req: Recorded TGI for "COc1ccc(C(=O)c2c(-c3ccccc3NC(=O)C(F)(F)F)[nH]c3ccccc23)cc1" , please?
Resp: 22.8 µM

Req: Recorded TGI for COC1(OC)C2(Cl)C(Cl)=C(Cl)C1(Cl)C1c3ccc(C(C)=O)c4cccc(c34)C12 (stereo not given) , please?
Resp: > 70.2 µM

* * *

test system: MOLT-4 leukemia; assay: NCI tumour cell line growth inhibition, 48 h
Property: TGI; scope: individual compounds
Numbers only here, please. The scale is µM.

{"columns": ["SMILES DATA", "TGI (µM)"],
 "data": [
  ["CN(C)c1ccc(C(=N)c2ccc(N(C)C)cc2)cc1", 26]
]}

Req: Recorded TGI for "c1ccc2cc(Cn3cc[n+](Cc4ccc5ccccc5c4)c3)ccc2c1" , please?
Resp: 8.38

* * *

Property: TGI; scope: individual compounds
test system: HOP-92 NSCLC; test: NCI tumour cell line growth inhibition, 48 h
Where a SMILES comes first, the peptide text is derived from it. [ ]: non-standard residue; d: D form. The star is where a group is joined. X28 = COC1=CC(=O)N(C(=O)[C@@H](O*)C(C)C)[C@H]1Cc1ccccc1; Bn2Val = CC(C)[C@@H](C(=O)*)N(Cc1ccccc1)Cc1ccccc1; NMeV = CN[C@H](C(=O)O)C(C)C; dNMeA = CN[C@H](C)C(=O)O

Please review the following examples before continuing.
{"columns": ["COMPOUND", "TGI"],
 "data": [
  ["COC1=CC(=O)N(C(=O)[C@@H](OC(=O)[C@@H](C)N(C)C(=O)[C@@H]2CCCN2C(=O)[C@H](C(C)C)N(C)C(=O)[C@@H](NC(=O)[C@H](C(C)C)N(Cc2ccccc2)Cc2ccccc2)C(C)C)C(C)C)[C@H]1Cc1ccccc1 (Bn2Val-V[NMeV]P[dNMeA]-X28)", "> 100 µM"],
  ["CO[C@H]1CC[C@]2(C)C3=CC[C@@]4(C)C(CC[C@@H]4C(C)CC[C@@H](C)C(C)C)C(=CCC2C1)O3 (stereo partly drawn)", "> 25 µM"],
  ["C[C@@H](NC(=O)[C@@H]1C[C@]1(C)CO)c1cccc2ccccc12", "> 100 µM"],
  ["C=CC(C)(C)C1(CC(OC)OC)C(=O)N(C)c2ccccc21 (stereo not drawn)", "> 25 µM"]
]}

Req: Recorded TGI for COC(NC(N)=O)C(=O)O (stereo not drawn) , please?
Resp: > 100 µM

Req: Recorded TGI for "CCn1c(-c2ccc(OC)cc2)nc2c1C(=O)c1ccccc1C2=O" , please?
Resp: > 100 µM

Req: Recorded TGI for "Cc1cc(C(=O)Nc2cc(Oc3ccc4nc(NC(=O)C5CC5)cn4n3)ccc2C)n(C)n1" , please?
Resp: > 10 µM

Req: Recorded TGI for O=C1NC(O)c2ccccc2O1 (stereo not drawn) , please?
Resp: > 100 µM

* * *

test system: MOLT-4 leukemia; assay: NCI tumour cell line growth inhibition, 48 h
MEASURED PARAMETER: TGI

Please review the following examples before continuing.
{"columns": ["MOLECULE", "MEASURED PARAMETER", "RECORDED RESULT"],
 "data": [
  ["N#CCCN(CCC#N)c1ccc(/C=C2\\SC(=S)NC2=O)cc1", "TGI", "> 100 µM"],
  ["CCCCOc1c(C(=O)O)cc(Br)cc1C(=O)O", "TGI", "> 100 µM"],
  ["COc1cc(-c2nn(-c3cccc(NC(=O)NCCNS(=O)(=O)c4ccc(Cl)cc4)c3)cc2-c2ccncc2)ccc1Cl", "TGI", "> 100 µM"],
  ["O=C1NC(=O)[C@@]2(CC[C@@H](O)C2)c2ccncc21", "TGI", "> 100 µM"],
  ["CC(=O)NNC(=S)/N=C\\c1c(O)c2ccccc2oc1=O", "TGI", "> 100 µM"]
]}

Req: Recorded TGI for "CC(C(=O)NCCNC(=O)CCC(=O)N(C)O)C(=O)NCCNC(=O)CCC(=O)N(C)O" , please?
Resp: > 100 µM

Req: Recorded TGI for CC1(C)OC2CC3COC(=O)C3CC2O1 (configuration not stated) , please?
Resp: > 100 µM

Req: Recorded TGI for "N#C/C(=C/n1c(=S)[nH]c2ccccc21)C(N)=O" , please?
Resp: > 100 µM

Req: Recorded TGI for "CCNc1cc2oc(=O)cc(C(F)(F)F)c2cc1C" , please?
Resp: > 100 µM

Req: Recorded TGI for "N/C(=N\S(=O)(=O)c1ccc(-c2ccccn2)s1)Nc1ccc(Cl)cc1" , please?
Resp: 5.61 µM

Source listed as PubChem BioAssay (NCI).
